Experiment: chemical genetic growth profiling, strain panel (AID 1159580);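 also: tested at 20 µM; growth read once vehicle control cultures reached saturation at 30 °C; 1 = growth at the plate median or of vehicle wells; lower values mean less growth of the strain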
Conditions: S. cerevisiae deletion strains, growth OD, locus YGL227W, strain vid30, active compounds read low
In all, about 5,500 compounds went through this assay and about 2,000 (36%) were called active. Inconclusive results (about 18%) are left out. Some of the results follow. Where a SMILES comes first, the peptide text is derived from it. Bridges are numbered along the chain shown (N, C = ends). [ ]: non-standard residue; d: D form. The star is where a group is joined. Octanoyl(6-Me) = CCC(C)CCCCC(=O)*; Orn = NCCC[CH](N)C(=O)O; Dab = NCC[CH](N)C(=O)O
observed.property: normalized growth

OC(c1cc(C(F)(F)F)nc2c(C(F)(F)F)cccc12)C1CCCCN1 (stereo not drawn): 1 (inactive)
CCC(C)CCCCC(=O)NC(CCN)C(=O)NC(C(=O)NC(CCN)C(=O)NC1CCNC(=O)C(C(C)O)NC(=O)C(CCN)NC(=O)C(CCN)NC(=O)C(CC(C)C)NC(=O)C(Cc2ccccc2)NC(=O)C(CCN)NC1=O)C(C)O (stereo not drawn) ({Octanoyl(6-Me)}-[Dab]T[Dab][Dab][Dab]FL[Dab][Dab]T; lactam 4-C; configuration not given here): 1.01 (inactive)

Moving on to another compound below.
The compound identified as CC(C)CC1NC(=O)C(CCCN)NC(=O)C(C(C)C)NC(=O)C2CCCN2C(=O)C(Cc2ccccc2)NC(=O)C(CC(C)C)NC(=O)C(CCCN)NC(=O)C(C(C)C)NC(=O)C2CCCN2C(=O)C(Cc2ccccc2)NC1=O (stereo not drawn) (cyclo(FPV[Orn]LFPV[Orn]L); configuration not given here) registered its normalized growth at 1.05 (inactive)
